- Subject Of Test: T1, proprotein convertase subtilisin/kexin type 9 (PCSK9) (human, UniProt Q8NBP7 31-692)
- T1 construct: His-tagged full-length PCSK9 in TR-FRET and SPR, biotinylated in phage ELISA; secreted protein is autoprocessed (prodomain plus catalytic/CRD chain starting at S153); also called rec.PCSK9; His-PCSK9
- Measurement Description: phage spot ELISA;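 also: phage clones bound to PCSK9 or PCSK9Δhelix by ELISA, noise being the same phage on NeutrAvidin, positive when signal above 0.4 and signal:noise above 2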
Measured Metric: s/n ratio
# print the numeric value only

Binder | Val
TAFTSWEEYLDWVGSGKLWNLGRV [SEQ ID NO 306] | 28.2

Input: s/n ratio lookup needed for TAFTSWEEYLDWVGSGGEYLWNLKRLES [SEQ ID NO 320] , thanks.
Output: 28.7

Where do these numbers come from? They come from patent US20200283478A1.
